# system: PCP receptors
# assay remarks: Phencyclidine (PCP) receptor binding assay with [3H]TCP
# test parameters: guinea pig brain; determined in independent experiments
readout kind: pKd
Entry type: numeric. Quantity: pKd, the -log10 of concentration in molar units.

Consider the compound shown here: c1csc(C2(N3CCCCC3)CCCCC2)c1 [[^3H]TCP] What is its recorded pKd?
7.60
